Where do the numbers come from? From patent US10413520B2.

experiment: Pharmacokinetic properties of crystalline forms after oral administration; format: in vivo; conditions: male, SD, rat, blood, po, 5 mg, single oral dose, about 5 mg in 10 mL 0.5% methylcellulose, 10 mL/Kg, male SD rats; read-out: Tmax
READOUT_LABEL: Tmax (min)
Your answer is read as min, so omit the unit and give the number.

Can you look up the measured Tmax of CC1(C)OC(c2ccc(S(N)(=O)=O)cc2)=C(c2cccc(F)c2)C1=O for me? 30

###

test: Solubility test in solvents, up to 200 vol (Table 1); format: physicochemical; conditions: organic solvent or mixture, thermodynamic from solid, about 5 mg compound, solvent named in the row (c1), read-out: Solubility at 100 vol (500 uL)
READOUT_LABEL: solubility

Can you look up the measured solubility of CC1(C)OC(c2ccc(S(N)(=O)=O)cc2)=C(c2cccc(F)c2)C1=O for me? > 10000 µg/mL
